Attribution: ChEMBL document CHEMBL1201862

tested on: IGROV-1; assay: NCI tumour cell line growth inhibition, 48 h
Active and inactive are the calls of the source. No stated cut-off is given here; in the data, active = GI50 up to about 1.1 µM and inactive = higher.
API: response.call in true (active), false (inactive)

Check out these entries, answers already filled in.
NC(=O)C1CCCN1Cc1ccc2c(c1)OCO2 (stereo not drawn)	false
c1ccc2c(c1)ccn2CCc1c[nH]c2ccccc12	false
COc1ccc(N2C(Cl)C(=O)C2c2c[nH]c3ccccc23)cc1 (stereo not drawn)	false

Query :: Lab log entry: `O=c1[nH]c(Nc2nc3ccccc3[nH]2)nc(O)c1-c1ccccc1` — outcome as called in the assay?
Result :: false

----------
test system: SR; assay: NCI tumour cell line growth inhibition, 48 h
Active and inactive are the calls of the source. Rule as the data show it: active = GI50 up to about 1.1 µM and inactive = higher.
Mark one answer only. Choices: yes (1) = active, no (0) = inactive

CC(=O)C(CN1CCOCC1)C(c1ccccc1)c1c(O)c2ccccc2oc1=O (stereo not given)	no (0)
CN(C)/C=N\c1ccn(CCO)c(=O)n1	no (0)
C=C1C(=O)OC2C3C(=C)[C@@H](OC(C)=O)CC3C(C)=CC(OC(=O)C(C)(O)C(C)OC(C)=O)[C@@H]12 (stereo not given in full)	no (0)
COc1cc(C2c3cc4c(cc3OC(NNC(N)=O)C2C)OCO4)cc(OC)c1O (stereo not given)	yes (1)
CN(C)CCCNC(=O)c1cc(NC(=O)c2cc(NC(=O)[C@H]3C[C@@H]3C(=O)Nc3cc(C(=O)Nc4cc(C(=O)NCCCN(C)C)n(C)c4)n(C)c3)cn2C)cn1C	no (0)
N#C[C@H](c1nc2ccccc2s1)c1nc2ccccc2nc1Cl	no (0)

Query :: Outcome? `CC(=O)c1cc2c(s1)C(=O)c1ccccc1C2=O`
Result :: no (0)

Query :: Hi, sorry to bother you, what did the test record for `COc1cccc2c1CCc1c(-c3ccc(F)cc3)cc(-c3ccc4ccccc4n3)nc1-2` ?
Result :: no (0)

Query :: Fill in: this test's call for `COC[C@H]1C(=O)NCC(=O)N2N=CCC[C@H]2C(=O)N(O)[C@H](C)C(=O)O[C@@H](C(C)C)[C@H](NC(=O)[C@@](C)(O)[C@]2(O)CC[C@@H](CC(C)C)[C@H](C)O2)C(=O)N2NCCC[C@@H]2C(=O)N1O` is ___
Result :: yes (1)

Query :: What is the recorded call for this compound in the test? `O=c1c2cc(S(=O)(=O)O)ccc2nc(COc2ccc(Oc3ccc(Cl)cc3Cl)cc2)n1C(=S)Nc1ccc(Cl)cc1`
Result :: no (0)

Query :: For CC12CCC(CC1(Cl)Cl)C2 (stereo not given) , which call appears in the assay record?
Result :: no (0)

----------
system: NCI/ADR-RES; test: NCI tumour cell line growth inhibition, 48 h
The source made the active and inactive calls. No stated cut-off is given here; in the data, active = GI50 up to about 1.1 µM and inactive = higher.
Each record here notes measured GI50.

See these solved cases before continuing.
CC(=O)c1c(-c2ccco2)c(C#N)c(=S)n(C2OC(CO)C(O)C(O)C2O)c1C (stereo not drawn)	75.9 µM (inactive)
CNC(=O)c1cc2nc3ccccc3c(=O)n2c2ccccc12	> 10 µM (inactive)
C=C1C(=O)O[C@H]2C/C(C)=C/CC/C(C)=C/CC[C@@](C)(O)[C@@H](I)C[C@@H]12	6.3 µM (inactive)
Cc1ccc2nc(/C=N/c3ccccc3Cl)cc(C)c2c1	16.8 µM (inactive)
CC1(C(=O)O)CCC(C(=O)O)C(C)(C)O1 (stereo not drawn)	> 100 µM (inactive)

get_value(item= COc1ccc(/N=N/C(=O)NC(CC(C)C)C(=O)NC(C)C(=O)O)cc1 (stereo not drawn) , readout=GI50) returns > 67.9 µM (inactive)

Record O=C1C(CN2CCCC2)CCC1CN1CCCC1 (stereo not drawn) . Reported GI50: 23.9 µM (inactive)

The reported value for COc1cc2c(c(O)c1OC)C(O)C1CCC(=O)N1C2c1ccc2c(c1)OCO2 (stereo not drawn) in terms of GI50 is > 100 µM (inactive)
